- Tested on: NCI-H719 tumor spheroids, viability
- assay procedure: Anticancer human tumor NCI-H719 cell line growth inhibition;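 further: spheroids exposed to compounds for seven days; percent viability relative to DMSO vehicle control as 100%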
- test context: second compound 10 µM; first compound 3.16 µM; active compounds read low; spheroids with HUVEC and MSC
Listed below: viability, T/C values for each entry.
endpoint name: viability, T/C (%)

> print(dat)
                                   compound   endpoint.name  readout.value
1  [2H]c1nc(C)nc([2H])c1-c1cc(NC[C@@H](C)c2cccc3c(C(=O)NC)ccnc23)ncn1 + Cn1nnc2c(C(N)=O)ncn2c1=O  viability, T/C           89.8
2  CC(C)n1c(=O)n(C)c2cnc3cc(F)c(-c4ccc(OCCCN5CCCCC5)nc4)cc3c21 + Cn1nnc2c(C(N)=O)ncn2c1=O  viability, T/C            141
3  COc1ccc([C@@H](O)c2cc(-c3ncnc4cc(N5CCOCC5)ccc34)c(F)cc2Cl)nn1 + Cn1nnc2c(C(N)=O)ncn2c1=O  viability, T/C           48.9
4  COc1cc(C)[nH]c(=O)c1CN1CCc2c(Cl)cc(C(OC)C3COC3)c(Cl)c2C1=O (stereo unspecified) + Cn1nnc2c(C(N)=O)ncn2c1=O  viability, T/C            125
5  Cc1cc(C)c(CNC(=O)c2cc(-c3ccc(CN4CCOCC4)cc3)cc3c2cnn3C2CCCC2)c(=O)[nH]1 + Cn1nnc2c(C(N)=O)ncn2c1=O  viability, T/C           94.3
6  CC1COCCN1c1cc(-c2ccnn2C)c2ccnc(-c3ccn[nH]3)c2n1 (stereo unspecified) + Cn1nnc2c(C(N)=O)ncn2c1=O  viability, T/C           7.59

* * *

- System: NCI-H719 tumor spheroids, viability
- assay procedure: Anticancer human tumor NCI-H719 cell line growth inhibition;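 further: spheroids exposed to compounds for seven days; percent viability relative to DMSO vehicle control as 100%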
- test context: second compound 0.003 µM; first compound 3 µM; active compounds read low; spheroids with HUVEC and MSC
Listed below: viability, T/C values for each entry.
endpoint name: viability, T/C (%)

molecule	readout value
CNCc1ccc(-c2cc(-c3nc(-c4ccc(S(=O)(=O)C(C)C)cc4)cnc3N)on2)cc1 + COc1cc2c(cc1O)CCNC21CSC2c3c(OC(C)=O)c(C)c4c(c3C(COC1=O)N1C(O)C3Cc5cc(C)c(OC)c(O)c5C(C21)N3C)OCO4	1.15
Cc1sc2c(c1C)C(c1ccc(Cl)cc1)=NC(CC(=O)Nc1ccc(O)cc1)c1nnc(C)n1-2 (stereo not drawn) + CC[C@@]1(O)C(=O)OCc2c1cc1n(c2=O)Cc2cc3c(CN(C)C)c(O)ccc3nc2-1	1.57
Cn1ncnc1[C@H]1c2n[nH]c(=O)c3cc(F)cc(c23)N[C@@H]1c1ccc(F)cc1 + COc1cc2c(cc1O)CCNC21CSC2c3c(OC(C)=O)c(C)c4c(c3C(COC1=O)N1C(O)C3Cc5cc(C)c(OC)c(O)c5C(C21)N3C)OCO4	0.88
O=C(c1cc(Cc2n[nH]c(=O)c3ccccc23)ccc1F)N1CCN(C(=O)C2CC2)CC1 + CC[C@@]1(O)C(=O)OCc2c1cc1n(c2=O)Cc2cc3c(CN(C)C)c(O)ccc3nc2-1	6.81
CNCc1ccc(-c2cc(-c3nc(-c4ccc(S(=O)(=O)C(C)C)cc4)cnc3N)on2)cc1 + CC[C@@]1(O)C(=O)OCc2c1cc1n(c2=O)Cc2cc3c(CN(C)C)c(O)ccc3nc2-1	0.12
Cn1ncnc1[C@H]1c2n[nH]c(=O)c3cc(F)cc(c23)N[C@@H]1c1ccc(F)cc1 + CC[C@@]1(O)C(=O)OCc2c1cc1n(c2=O)Cc2cc3c(CN(C)C)c(O)ccc3nc2-1	5.85
Cc1sc2c(c1C)C(c1ccc(Cl)cc1)=NC(CC(=O)Nc1ccc(O)cc1)c1nnc(C)n1-2 (stereo not drawn) + COc1cc2c(cc1O)CCNC21CSC2c3c(OC(C)=O)c(C)c4c(c3C(COC1=O)N1C(O)C3Cc5cc(C)c(OC)c(O)c5C(C21)N3C)OCO4	0.31
O=C(c1cc(Cc2n[nH]c(=O)c3ccccc23)ccc1F)N1CCN(C(=O)C2CC2)CC1 + COc1cc2c(cc1O)CCNC21CSC2c3c(OC(C)=O)c(C)c4c(c3C(COC1=O)N1C(O)C3Cc5cc(C)c(OC)c(O)c5C(C21)N3C)OCO4	0.7

All values here come from PubChem BioAssay AID1845212.
